target: human TRPC6 (Homo sapiens); test: TRPC6 calcium flux assay (FLIPR, OAG-stimulated calcium influx); details: HEK293 cells stably transfected with human TRPC6, read-out: hTRPC6 Potency
test_readout: IC50

These recorded examples may help you get a feel for the data.
>  <compound>
N[C@@H]1CN(c2nc3cc(Cl)ccc3n2CC(=O)N2CCC2)CC[C@H]1F

>  <test_readout>
IC50

>  <measured_result>
562 nM

$$$$
>  <compound>
N#Cc1ccc(Cn2c(N3CC[C@@H](F)[C@@H](N)C3)nc3ccccc32)cc1

>  <test_readout>
IC50

>  <measured_result>
544 nM

$$$$

Fill in IC50 for each of the 5 compounds listed.
1. C[C@@H]1COCCN1C(=O)Cn1c(N2CC[C@@H](F)[C@H](N)C2)nc2ccc(F)cc21
2. COCC1(C#N)CCN(C(=O)Cn2c(N3CC[C@@H](F)[C@H](N)C3)nc3cc(F)c(F)cc32)CC1
3. N#Cc1ccc(Cn2c(N3CC[C@@](F)(CN)C3)nc3ccccc32)cc1 [Example 174, 2,2,2-trifluoroacetate]
4. N#Cc1ccc(Cn2c(N3CC[C@@H](F)[C@H](N)C3)nc3cc(F)c(F)cc32)c(OC(F)F)c1
5. N[C@@H]1CN(c2nc3cc(F)c(F)cc3n2CC(=O)N2CCc3sccc3C2)CC[C@H]1F

["168 nM", "> 3750 nM", "564 nM", "12.1 nM", "43.2 nM"]

====

target: human TRPC6 (Homo sapiens, UniProt Q9Y210); experiment: TRPC6 calcium flux assay (FLIPR, OAG-stimulated calcium influx); details: HEK293 cells stably transfected with human TRPC6, read-out: hTRPC6 Potency
Sequence (Q9Y210 whole entry): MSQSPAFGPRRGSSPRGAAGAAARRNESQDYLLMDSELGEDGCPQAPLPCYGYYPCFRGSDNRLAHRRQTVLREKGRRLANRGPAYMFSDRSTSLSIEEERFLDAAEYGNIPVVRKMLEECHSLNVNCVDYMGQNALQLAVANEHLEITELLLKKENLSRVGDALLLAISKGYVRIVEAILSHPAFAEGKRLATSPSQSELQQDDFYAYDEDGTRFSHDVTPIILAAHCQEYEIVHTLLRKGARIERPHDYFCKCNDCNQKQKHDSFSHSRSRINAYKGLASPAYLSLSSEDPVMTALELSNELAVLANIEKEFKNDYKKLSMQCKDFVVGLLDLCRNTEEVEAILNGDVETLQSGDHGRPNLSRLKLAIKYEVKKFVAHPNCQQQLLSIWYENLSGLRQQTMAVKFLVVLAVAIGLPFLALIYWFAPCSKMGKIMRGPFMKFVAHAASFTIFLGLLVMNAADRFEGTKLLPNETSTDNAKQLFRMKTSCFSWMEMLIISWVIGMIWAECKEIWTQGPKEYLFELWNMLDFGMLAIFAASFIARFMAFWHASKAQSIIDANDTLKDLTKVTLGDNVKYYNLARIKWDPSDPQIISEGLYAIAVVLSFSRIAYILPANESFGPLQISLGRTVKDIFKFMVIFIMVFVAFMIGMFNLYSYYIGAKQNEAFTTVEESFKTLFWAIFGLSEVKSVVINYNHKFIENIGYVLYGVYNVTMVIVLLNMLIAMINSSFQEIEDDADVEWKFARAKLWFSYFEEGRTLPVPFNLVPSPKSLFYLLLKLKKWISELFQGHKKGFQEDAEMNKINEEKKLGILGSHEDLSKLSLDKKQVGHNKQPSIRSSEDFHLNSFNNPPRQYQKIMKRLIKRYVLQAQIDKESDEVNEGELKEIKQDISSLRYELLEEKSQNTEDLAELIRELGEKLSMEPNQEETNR
test_readout: pIC50
One number for each entry, as −log10 of the molar value.

// below: answered molecules
>  <molecule>
N[C@@H]1CN(c2nc3cc(F)c(F)cc3n2Cc2cccc(C(F)(F)F)c2)CC[C@H]1F

>  <pIC50>
5.53

$$$$
>  <molecule>
CN(CC(F)(F)F)C(=O)Cn1c(N2CC[C@H](F)[C@H](N)C2)nc2ccc(F)cc21 (single isomer, unassigned) [Example 466]

>  <pIC50>
6.99

$$$$
>  <molecule>
N[C@@H]1CN(c2nc3cc(C(F)(F)F)ccc3n2Cc2ncc(F)cn2)CC[C@@H]1F

>  <pIC50>
5.84

$$$$
>  <molecule>
CC1(C)COCCN1C(=O)Cn1c(N2CC[C@@H](F)[C@H](N)C2)nc2ccc(F)cc21

>  <pIC50>
5.68

$$$$
>  <molecule>
N[C@@H]1CN(c2nc3ccccc3n2Cc2ncc(Br)cn2)CC[C@H]1F

>  <pIC50>
8.76

$$$$

Each molecule below has a recorded value; state its pIC50.
1. N#Cc1ccc(Cn2c(N3CCC[C@H](N)C3)nc3ccccc32)cc1
2. CN[C@@H]1CN(c2nc3ccc(F)cc3n2Cc2ccc(C#N)cn2)CCC1(F)F

1: 8.71; 2: 8.11

====

molecular target: human TRPC6 (Homo sapiens, UniProt Q9Y210); experiment: TRPC6 calcium flux assay (FLIPR, OAG-stimulated calcium influx); details: HEK293 cells stably transfected with human TRPC6, read-out: hTRPC6 Potency
Where a name gives a salt, the structure may show the parent alone.
test_readout: log10(IC50) (log10 of the value in nM)
Note the log scale: values are log10 of IC50 expressed in nM.

Example results:
>  <molecule>
N[C@@H]1CN(c2nc3cc(F)c(F)cc3n2Cc2ccc(Cl)c(Cl)c2)CC[C@H]1F

>  <log10(IC50)>
2.38

$$$$
>  <molecule>
N#Cc1ccc(Cn2c(N3CC4CCC(N)C4C3)nc3ccccc32)cc1 (centres unmarked)

>  <log10(IC50)>
1.15

$$$$
>  <molecule>
N#Cc1ccc(Cn2c(N3CCC4(CCCC4N)C3)nc3ccccc32)cc1 (centres unmarked)

>  <log10(IC50)>
3.20

$$$$
>  <molecule>
N[C@@H]1CN(c2nc3ccc(Cl)cc3n2CC(=O)N2CCOCC2)CC[C@H]1F

>  <log10(IC50)>
1.10

$$$$
>  <molecule>
N#Cc1ccc(Cn2c(N3CC[C@H](F)[C@@H](N)C3)nc3ccccc32)nc1

>  <log10(IC50)>
2.35

$$$$
>  <molecule>
COc1cnc(Cn2c(N3CC[C@@H](F)[C@H](N)C3)nc3ccc(C#N)cc32)nc1 [Example 242, hydrochloride]

>  <log10(IC50)>
1.87

$$$$
>  <molecule>
N#Cc1cnc(Cn2c(N3CC[C@@H](F)[C@H](N)C3)nc3ccc(F)cc32)nc1

>  <log10(IC50)>
-0.50

$$$$

So what's the measured log10(IC50) for this one? N#Cc1cc(F)cc2nc(N3CCC(F)(F)[C@H](N)C3)n(Cc3ncc(Cl)cn3)c12
0.96

These data points were gathered from patent US11332459B2.
